- recorded.conditions: 308.15 K; 101.33 kPa; Liquid; Single path-length method
± gives the expanded uncertainty stated by the source.
experimental.readout: speed of sound
Please give the number followed by its unit.

The compound listed as CCCC(=O)[O-].CCCCCC[NH+](CCCCCC)CCCCCC [trihexylammonium butanoate] has a reported speed of sound of 1290.7 ± 5.4 m/s

The compound listed as CCCCCC(=O)[O-].CCCCCC[NH+](CCCCCC)CCCCCC [trihexylammonium hexanoate] has a reported speed of sound of 1300.1 ± 5.4 m/s

The compound listed as CCCC(=O)[O-].CCCCCCCC[NH+](CCCCCCCC)CCCCCCCC [trioctylammonium butanoate] has a reported speed of sound of 1324.2 ± 5.4 m/s

The compound listed as CCCCCCCC(=O)[O-].CCCCCCCC[NH+](CCCCCCCC)CCCCCCCC [trioctylammonium octanoate] has a reported speed of sound of 1340.1 ± 5.4 m/s

The compound listed as CCCCCC(=O)[O-].CCCCCCCC[NH+](CCCCCCCC)CCCCCCCC [trioctylammonium hexanoate] has a reported speed of sound of 1331 ± 5.4 m/s

The compound listed as CCCCCCCC(=O)[O-].CCCCCC[NH+](CCCCCC)CCCCCC [trihexylammonium octanoate] has a reported speed of sound of 1312.2 ± 5.4 m/s

---

- recorded.conditions: 293.15 K; 101.33 kPa; Liquid; Falling or rolling sphere viscometry
Reported viscosity values are given for each entry in this list.
Write it as a number; the unit mPa·s goes unstated.

Solved cases (2 shown):
molecule: CCCCCC(=O)[O-].CCCCCC[NH+](CCCCCC)CCCCCC [trihexylammonium hexanoate]
experimental.readout: viscosity
observed.value: 13.86
//
molecule: CCCCCC(=O)[O-].CCCCCCCC[NH+](CCCCCCCC)CCCCCCCC [trioctylammonium hexanoate]
experimental.readout: viscosity
observed.value: 20.58

The molecule listed as CCCCCCCC(=O)[O-].CCCCCC[NH+](CCCCCC)CCCCCC [trihexylammonium octanoate] has a reported viscosity of 17.02

The molecule listed as CCCC(=O)[O-].CCCCCC[NH+](CCCCCC)CCCCCC [trihexylammonium butanoate] has a reported viscosity of 13.26

The molecule listed as CCCC(=O)[O-].CCCCCCCC[NH+](CCCCCCCC)CCCCCCCC [trioctylammonium butanoate] has a reported viscosity of 17.82

The molecule listed as CCCCCCCC(=O)[O-].CCCCCCCC[NH+](CCCCCCCC)CCCCCCCC [trioctylammonium octanoate] has a reported viscosity of 25.02

---

- procedure.summary: refractive index (Na D-line) (dimensionless)
- recorded.conditions: 293.15 K; 101.33 kPa; Liquid; Standard Abbe refractometry
Reported refractive index values are given for each entry in this list.
# answer = number (no unit)

Solved cases (5 shown):
compound: CCCC(=O)[O-].CCCCCC[NH+](CCCCCC)CCCCCC [trihexylammonium butanoate]
observed.value: 1.4419
//
compound: CCCCCC(=O)[O-].CCCCCCCC[NH+](CCCCCCCC)CCCCCCCC [trioctylammonium hexanoate]
observed.value: 1.4489
//
compound: CCCCCCCC(=O)[O-].CCCCCCCC[NH+](CCCCCCCC)CCCCCCCC [trioctylammonium octanoate]
observed.value: 1.4505
//
compound: CCCCCCCC(=O)[O-].CCCCCC[NH+](CCCCCC)CCCCCC [trihexylammonium octanoate]
observed.value: 1.4459
//
compound: CCCCCC(=O)[O-].CCCCCC[NH+](CCCCCC)CCCCCC [trihexylammonium hexanoate]
observed.value: 1.4432

Now for a further compound.
The compound listed as CCCC(=O)[O-].CCCCCCCC[NH+](CCCCCCCC)CCCCCCCC [trioctylammonium butanoate] has a reported refractive index of 1.4474

---

Reported speed of sound values are given for each entry in this list.
- recorded.conditions: 323.15 K; 101.33 kPa; Liquid; Single path-length method
Write it as a number; the unit m/s goes unstated.

molecule: CCCC(=O)[O-].CCCCCCCC[NH+](CCCCCCCC)CCCCCCCC [trioctylammonium butanoate]
observed.value: 1272.5
--
molecule: CCCCCCCC(=O)[O-].CCCCCCCC[NH+](CCCCCCCC)CCCCCCCC [trioctylammonium octanoate]
observed.value: 1288.8
--
molecule: CCCC(=O)[O-].CCCCCC[NH+](CCCCCC)CCCCCC [trihexylammonium butanoate]
observed.value: 1238.1
--
molecule: CCCCCC(=O)[O-].CCCCCCCC[NH+](CCCCCCCC)CCCCCCCC [trioctylammonium hexanoate]
observed.value: 1279.7
--
molecule: CCCCCCCC(=O)[O-].CCCCCC[NH+](CCCCCC)CCCCCC [trihexylammonium octanoate]
observed.value: 1260.2

Now for a further molecule.
The molecule listed as CCCCCC(=O)[O-].CCCCCC[NH+](CCCCCC)CCCCCC [trihexylammonium hexanoate] has a reported speed of sound of 1247.7

---

Reported mass density values are given for each entry in this list.
- recorded.conditions: 343.15 K; 101.33 kPa; Liquid; Vibrating tube method
Write it as a number; the unit kg/m3 goes unstated.

Solved cases (3 shown):
molecule: CCCC(=O)[O-].CCCCCCCC[NH+](CCCCCCCC)CCCCCCCC [trioctylammonium butanoate]
observed.value: 810.41

molecule: CCCCCC(=O)[O-].CCCCCC[NH+](CCCCCC)CCCCCC [trihexylammonium hexanoate]
observed.value: 813.33

molecule: CCCC(=O)[O-].CCCCCC[NH+](CCCCCC)CCCCCC [trihexylammonium butanoate]
observed.value: 810.76

The molecule listed as CCCCCCCC(=O)[O-].CCCCCCCC[NH+](CCCCCCCC)CCCCCCCC [trioctylammonium octanoate] has a reported mass density of 815.03

The molecule listed as CCCCCCCC(=O)[O-].CCCCCC[NH+](CCCCCC)CCCCCC [trihexylammonium octanoate] has a reported mass density of 815.25

The molecule listed as CCCCCC(=O)[O-].CCCCCCCC[NH+](CCCCCCCC)CCCCCCCC [trioctylammonium hexanoate] has a reported mass density of 813.12

---

Reported mass density values are given for each entry in this list.
- recorded.conditions: 323.15 K; 101.33 kPa; Liquid; Vibrating tube method
± gives the expanded uncertainty stated by the source.

Solved cases (5 shown):
molecule: CCCCCCCC(=O)[O-].CCCCCCCC[NH+](CCCCCCCC)CCCCCCCC [trioctylammonium octanoate]
observed.value: 828.91 ± 4 kg/m3

molecule: CCCCCC(=O)[O-].CCCCCCCC[NH+](CCCCCCCC)CCCCCCCC [trioctylammonium hexanoate]
observed.value: 827.12 ± 4 kg/m3

molecule: CCCCCCCC(=O)[O-].CCCCCC[NH+](CCCCCC)CCCCCC [trihexylammonium octanoate]
observed.value: 829.72 ± 4 kg/m3

molecule: CCCC(=O)[O-].CCCCCC[NH+](CCCCCC)CCCCCC [trihexylammonium butanoate]
observed.value: 825.78 ± 4 kg/m3

molecule: CCCCCC(=O)[O-].CCCCCC[NH+](CCCCCC)CCCCCC [trihexylammonium hexanoate]
observed.value: 828.04 ± 4 kg/m3

The molecule listed as CCCC(=O)[O-].CCCCCCCC[NH+](CCCCCCCC)CCCCCCCC [trioctylammonium butanoate] has a reported mass density of 824.59 ± 4 kg/m3

---

- procedure.summary: refractive index (Na D-line) (dimensionless)
- recorded.conditions: 338.15 K; 101.33 kPa; Liquid; Standard Abbe refractometry
± gives the expanded uncertainty stated by the source.
Reported refractive index values are given for each entry in this list.

molecule: CCCCCCCC(=O)[O-].CCCCCC[NH+](CCCCCC)CCCCCC [trihexylammonium octanoate]
observed.value: 1.4278 ± 0.0014
--
molecule: CCCC(=O)[O-].CCCCCC[NH+](CCCCCC)CCCCCC [trihexylammonium butanoate]
observed.value: 1.4241 ± 0.0014
--
molecule: CCCC(=O)[O-].CCCCCCCC[NH+](CCCCCCCC)CCCCCCCC [trioctylammonium butanoate]
observed.value: 1.43 ± 0.0014

The molecule listed as CCCCCC(=O)[O-].CCCCCCCC[NH+](CCCCCCCC)CCCCCCCC [trioctylammonium hexanoate] has a reported refractive index of 1.4316 ± 0.0014

The molecule listed as CCCCCC(=O)[O-].CCCCCC[NH+](CCCCCC)CCCCCC [trihexylammonium hexanoate] has a reported refractive index of 1.4258 ± 0.0014

The molecule listed as CCCCCCCC(=O)[O-].CCCCCCCC[NH+](CCCCCCCC)CCCCCCCC [trioctylammonium octanoate] has a reported refractive index of 1.4329 ± 0.0014

---

- recorded.conditions: 308.15 K; 101.33 kPa; Liquid; Falling or rolling sphere viscometry
experimental.readout: viscosity (mPa·s)
Write it as a number; the unit mPa·s goes unstated.

compound: CCCCCC(=O)[O-].CCCCCC[NH+](CCCCCC)CCCCCC [trihexylammonium hexanoate]
unit: mPa·s
viscosity: 8.05

Now for a further compound.
The compound listed as CCCCCCCC(=O)[O-].CCCCCC[NH+](CCCCCC)CCCCCC [trihexylammonium octanoate] has a reported viscosity of 9.68
